- Test system: HepG2
- Method Notes: cell viability relative to DMSO; higher = less toxic
- Condition Context: 72 h; 1 nM
Measurement Label: cell viability (%)

[[record]]
compound = "CC(C)N1Cc2cc(S(C)(=O)=O)ccc2N(CCN2CC=C(c3c[nH]c4cc(F)ccc34)CC2)S1(=O)=O"
u = "%"
numeric_value = 99.9

[[record]]
compound = "CC(C)C(=O)c1ccc(O)c(O)c1 [U-0521]"
u = "%"
numeric_value = 96.3

[[record]]
compound = "O=C(O)c1cc(O)c2c(c1)[C@H]([C@H]1c3cc(C(=O)O)cc(O)c3C(=O)c3c(O[C@@H]4O[C@H](CO)[C@@H](O)[C@H](O)[C@H]4O)cccc31)c1cccc(O[C@@H]3O[C@H](CO)[C@@H](O)[C@H](O)[C@H]3O)c1C2=O [sennoside-A]"
u = "%"
numeric_value = 90.2

[[record]]
compound = "Cc1nnsc1C(=O)Nc1ccc(-n2nc(C(F)(F)F)cc2C(F)(F)F)cc1"
u = "%"
numeric_value = 94.5

[[record]]
compound = "CNCc1ccc(-c2cc(-c3nc(-c4ccc(S(=O)(=O)C(C)C)cc4)cnc3N)on2)cc1 [VE-822]"
u = "%"
numeric_value = 111

[[record]]
compound = "CC(C)NC[C@@H](O)COc1ccc(CC(N)=O)cc1 (racemic) [atenolol-(+/-)]"
u = "%"
numeric_value = 101

[[record]]
compound = "COc1cccc(OC)c1-c1ccc(C[C@H](NC(=O)c2c(Cl)cccc2Cl)C(=O)O)cc1"
u = "%"
numeric_value = 91.7

[[record]]
compound = "CC[C@@H]1C(=O)N(C)c2cnc(Nc3ccc(C(=O)N[C@H]4CC[C@H](N5CCN(CC6CC6)CC5)CC4)cc3OC)nc2N1C(C)C [volasertib]"
u = "%"
numeric_value = 106


---

Recorded cell viability values for a group of molecules are listed next.
- Test system: U2OS
- Method Notes: cell viability relative to DMSO; higher = less toxic
- Condition Context: 72 h; 10000 nM
Measurement Label: cell viability (%)

[[record]]
molecule = "COc1cccc(OC)c1-c1ccc(C[C@H](NC(=O)c2c(Cl)cccc2Cl)C(=O)O)cc1"
measurement_label = "cell viability"
numeric_value = 93.4

[[record]]
molecule = "CCCCCS(=O)(=O)CCCCCCCCCCn1c(-c2ccc(O)cc2)c(C)c2cc(O)ccc21"
measurement_label = "cell viability"
numeric_value = 91.5

[[record]]
molecule = "O=C(O)c1cc2ccccc2s1 [BL-5583]"
measurement_label = "cell viability"
numeric_value = 98

[[record]]
molecule = "Nc1ccc(C(=O)O)cc1 [potassium-p-aminobenzoate]"
measurement_label = "cell viability"
numeric_value = 94.9

[[record]]
molecule = "O=C(O)c1ccc(S(=O)(=O)N(Cc2ccc(OC(F)(F)F)cc2)c2ncc(C(F)(F)F)cc2Cl)cc1"
measurement_label = "cell viability"
numeric_value = 97.2

[[record]]
molecule = "CCOC(=O)c1c(O)nc2cccc3c2c1-c1ccccc1C3=O [NQDI-1]"
measurement_label = "cell viability"
numeric_value = 101

[[record]]
molecule = "Cc1ccc(/C=C2\\CNC/C(=C\\c3ccc(C)cc3)C2=O)cc1"
measurement_label = "cell viability"
numeric_value = 13.4

[[record]]
molecule = "CC[C@H](NC(=O)c1c(O)c(-c2ccccc2)nc2ccccc12)c1ccccc1 [talnetant]"
measurement_label = "cell viability"
numeric_value = 101

[[record]]
molecule = "CCN1CCN(C(=O)N[C@@H](C(=O)N[C@@H]2C(=O)N3[C@@H]2SC(C)(C)[C@@H]3C(=O)O)c2ccccc2)C(=O)C1=O [piperacillin]"
measurement_label = "cell viability"
numeric_value = 103

